- measurement_protocol: Co-solvent addition: AOL solubility
- Type: physicochemical
- condition_summary: aqueous HP-β-CD solution, aqueous with cosolvent or surfactant or cyclodextrin, thermodynamic from solid, HP-β-CD 30% (w/w), Tween 80 10% (w/w)
observed_property: solubility at 4 h

Which solubility at 4 h value is on record for "COc1ccc(-c2cc(=S)ss2)cc1" ? 439 µg/mL

----------
- measurement_protocol: Solubility testing in buffer containing media
- Assay type: physicochemical
- condition_summary: buffered aqueous SBE-β-CD medium, pH 7.5, aqueous with cosolvent or surfactant or cyclodextrin, SBE-β-CD 20.0% (w/w), Phosphate 7.5 (100 μM), room temperature; read-out: AOL solubility
observed_property: solubility (µg/mL)
// return numeric value only (unit: µg/mL, not printed)

What solubility value was documented for this molecule, COc1ccc(-c2cc(=S)ss2)cc1 [AOL] ? 375

Data credit: patent US20210308173A1
